// provenance: patent US12617771B2

Tested on: Helicoverpa armigera GSTs
Experiment: Inhibition of total GSTs enzyme of Helicoverpa armigera (CDNB method)
Type: biochemical
Settings: 100 μM
For each entry below, report its 100 μM Inhibition rate % value.
State the value, then name its unit.

Request: Query: 100 μM Inhibition rate %; subject: COc1ccccc1OCC(=O)NNC(=O)c1cc(-c2ccccc2)nn1-c1ccccc1 [PXG18]
Response: −3.02%

Request: Query: 100 μM Inhibition rate %; subject: CC1(CCc2ccccc2)NC(=O)N(NC(=O)c2cc(-c3ccccc3)nn2-c2ccccc2)C1=O (centres unmarked) [PXG15]
Response: −1.48%

Request: Query: 100 μM Inhibition rate %; subject: CN(C)S(=O)(=O)c1ccc(C(=O)NNC(=O)c2cc(-c3ccccc3)nn2-c2ccccc2)cc1 [PXG29]
Response: 10.99%

Request: Query: 100 μM Inhibition rate %; subject: O=C(CC12C[C@H]3C[C@H](C1)C[C@@H](C2)C3)NNC(=O)c1cc(-c2ccccc2)nn1-c1ccccc1 [PXG26]
Response: 24.75%

Request: Query: 100 μM Inhibition rate %; subject: O=C(NN1C(=O)NC2(CCCCC2)C1=O)c1cc(-c2ccccc2)nn1-c1ccccc1 [PXG6]
Response: 23.21%

Request: Query: 100 μM Inhibition rate %; subject: CCCCCCSC[C@H](NC(=O)CC[C@H](N)C(=O)O)C(=O)NCC(=O)O [GTX, S-Hexylglutathione, reference compound]
Response: 96.30%

Request: Query: 100 μM Inhibition rate %; subject: N#Cc1ccccc1OCC(=O)NNC(=O)c1cc(-c2ccccc2)nn1-c1ccccc1 [PXG23]
Response: 0.43%

Request: Query: 100 μM Inhibition rate %; subject: CC1CCC2(CC1)NC(=O)N(NC(=O)c1cc(-c3ccccc3)nn1-c1ccccc1)C2=O (centres unmarked) [PXG16]
Response: 2.28%
